target: UniProt:O60674; assay: JAK2V617F kinase, IRF1 reporter and Ba/F3 cytotoxicity panel, late-stage follow-up, HEL and Ba/F3 cells (AID 2165); details: HEL, irf1 reporter
Sequence (O60674 whole entry, looked up, change not shown): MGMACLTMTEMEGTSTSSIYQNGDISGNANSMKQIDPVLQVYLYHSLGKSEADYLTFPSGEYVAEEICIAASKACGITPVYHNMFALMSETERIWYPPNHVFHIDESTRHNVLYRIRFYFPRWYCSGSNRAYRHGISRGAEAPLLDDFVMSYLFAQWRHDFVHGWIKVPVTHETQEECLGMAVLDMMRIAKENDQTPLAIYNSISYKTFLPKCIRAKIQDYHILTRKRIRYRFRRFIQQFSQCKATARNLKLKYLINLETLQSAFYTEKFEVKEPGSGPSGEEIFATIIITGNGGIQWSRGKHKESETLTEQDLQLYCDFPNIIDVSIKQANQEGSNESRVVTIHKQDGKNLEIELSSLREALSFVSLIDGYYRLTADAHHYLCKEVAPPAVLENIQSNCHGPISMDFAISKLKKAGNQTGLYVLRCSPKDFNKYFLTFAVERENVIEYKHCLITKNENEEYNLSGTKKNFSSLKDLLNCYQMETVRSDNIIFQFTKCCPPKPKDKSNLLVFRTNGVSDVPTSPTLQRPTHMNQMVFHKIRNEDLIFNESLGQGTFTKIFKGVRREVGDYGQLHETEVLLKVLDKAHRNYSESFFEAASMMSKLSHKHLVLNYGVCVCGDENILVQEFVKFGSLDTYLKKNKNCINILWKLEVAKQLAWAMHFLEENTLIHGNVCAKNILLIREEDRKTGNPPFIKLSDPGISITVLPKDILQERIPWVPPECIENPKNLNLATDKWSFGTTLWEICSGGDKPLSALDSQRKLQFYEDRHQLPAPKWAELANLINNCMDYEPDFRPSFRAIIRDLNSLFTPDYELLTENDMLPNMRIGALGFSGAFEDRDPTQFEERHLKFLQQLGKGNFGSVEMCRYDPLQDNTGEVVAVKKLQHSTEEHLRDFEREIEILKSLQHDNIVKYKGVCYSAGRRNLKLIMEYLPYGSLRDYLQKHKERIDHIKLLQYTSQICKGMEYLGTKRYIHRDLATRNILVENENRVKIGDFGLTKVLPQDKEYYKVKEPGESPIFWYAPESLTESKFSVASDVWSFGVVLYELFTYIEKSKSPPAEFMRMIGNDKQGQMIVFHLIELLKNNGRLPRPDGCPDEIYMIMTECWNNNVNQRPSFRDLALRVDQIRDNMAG
Calls of active or inactive are those of the source. No stated cut-off is given here; in the data, active means IC50 below about 9 µM; inactive means the rest.
Result category, one only: true (1) = active, false (0) = inactive

// below: answered compounds
{"columns": ["Compound", "Class"],
 "data": [
  ["Oc1ccccc1OCCOc1ccccc1OCCOc1ccccc1O", "true (1)"],
  ["CNC(=O)c1nnsc1S(=O)c1ccc(Cl)cc1 (stereo unspecified)", "true (1)"],
  ["N#CC(C#N)=Cc1ccc(O)c(O)c1", "false (0)"]
]}

Please let me know the test result on file for O=C(/C(=N/N=C/c1ccc(O)c(O)c1)c1ccccc1)c1ccccc1 .
true (1)

Please let me know the test result on file for CCN1C/C(=C/c2ccc(OC)c(O)c2)C(=O)/C(=C/c2ccc(OC)c(O)c2)C1 .
true (1)

Please let me know the test result on file for Cc1cc2[nH]c3c(c[n+](C)c4ccccc34)c2cc1C .
true (1)

----------
molecular target: Tyrosine-protein kinase JAK2 (Homo sapiens); assay: JAK2V617F kinase, IRF1 reporter and Ba/F3 cytotoxicity panel, late-stage follow-up, HEL and Ba/F3 cells (AID 2165); conditions: HEL, irf1 reporter
Activity calls are given as the source filed them. No stated cut-off is given here; in the data, active means IC50 below about 9 µM; inactive means the rest.
Result category, one only: Y for active, N for inactive

// below: answered molecules
{"columns": ["Molecule", "Class"],
 "data": [
  ["COc1cc2ncnc(Nc3ccccc3)c2cc1OC", "Y"],
  ["O=C(Oc1cccc2c(O)cccc12)c1ccccc1", "N"]
]}

Please let me know the test result on file for CCCOc1ccc(C(=O)C(CN2CCOCC2)c2ccccc2)cc1 (stereo not given) .
Y

Please let me know the test result on file for Cc1ccc(NC(=O)C(=Cc2ccc(C(=O)O)cc2)C(=O)Nc2ccc(C)cc2C)c(C)c1 .
Y

Please let me know the test result on file for O=C(CCl)N=c1sccn1Cc1ccc(Cl)cc1Cl .
Y

----------
target: Tyrosine-protein kinase JAK2 (Homo sapiens); test: JAK2V617F kinase, IRF1 reporter and Ba/F3 cytotoxicity panel, late-stage follow-up, HEL and Ba/F3 cells (AID 2165); conditions: Ba/F3, irf1 reporter; in the data active = IC50 below about 9 µM; inactive = the rest
Result category, one only: active, inactive

Please let me know the test result on file for Cc1ccc(Cn2ccsc2=NC(=O)CCl)cc1 .
active

Please let me know the test result on file for Cc1[nH]c(=O)c(C(=O)C=Cc2cccc(Br)c2)c2c1CCCC2 .
active

Please let me know the test result on file for CC1CCN(CCCNC(=O)c2cc3c(Cl)nc4ccccc4c3s2)CC1 .
active

Please let me know the test result on file for Cc1ccc2nc(C)cc(Nc3ccc([N+](=O)[O-])cc3)c2c1 .
active

Please let me know the test result on file for COc1ccc(Nc2ccc3c(c2)=NC2(CCCCC2)[N+]=3[O-])cc1 .
active

----------
molecular target: UniProt O60674; assay: JAK2V617F kinase, IRF1 reporter and Ba/F3 cytotoxicity panel, late-stage follow-up, HEL and Ba/F3 cells (AID 2165); conditions: HEL, irf1 reporter
The source made the active and inactive calls. Rule as the data show it: active = IC50 below about 9 µM; inactive = the rest.
Reported values of IC50 for individual entries

Solved cases below.
{"columns": ["Compound", "Tested Target", "Assay Value"],
 "data": [
  ["CCOc1ccc(Nc2nc(N)nc(CCl)n2)cc1", "UniProt O60674", "0.452 µM"],
  ["Nc1nc(CCl)nc(Nc2ccc3ccccc3c2)n1", "UniProt O60674", "0.958 µM"],
  ["N#C/C(=C\\c1ccc(O)c(O)c1)C(=O)NCCCc1ccccc1", "UniProt O60674", "16.1 µM"],
  ["Cc1cccc(OCC(=O)Nc2ccccc2F)c1", "UniProt O60674", "> 40 µM (inactive)"],
  ["Cc1ccc(C)c(Sc2ccc(NC(=O)CCl)cc2)c1", "UniProt O60674", "18 µM"],
  ["Cc1cc2ncc(-c3ccc(O)c(O)c3)nc2cc1C", "UniProt O60674", "3.19 µM"],
  ["O=C(C=C=Nc1ccccc1)C(=O)N=C=Cc1ccccc1", "UniProt O60674", "14.2 µM"],
  ["C#CCSc1nsc(SCC#C)c1C#N", "UniProt O60674", "> 40 µM (inactive)"],
  ["Oc1ccc(/C=N/N2CCN(C3c4ccccc4-c4ccccc43)CC2)cc1O", "UniProt O60674", "5.15 µM"],
  ["Cc1[nH]c(=O)c(C(=O)C=Cc2ccc(Cl)cc2)c2c1CCCC2", "UniProt O60674", "0.96 µM"]
]}

Recorded IC50 for COc1cccc(/C=N/NC(=O)c2[nH]c(C)c(C(=O)N/N=C/c3cccc(OC)c3O)c2C)c1O on UniProt O60674 was 9.67 µM

Recorded IC50 for COc1ccccc1-c1nnc(Sc2nc([N+](=O)[O-])nn2C)o1 on UniProt O60674 was 13.6 µM

Recorded IC50 for COc1ccc(C2=Nn3c(nnc3C3CCCCC3)SC2)cc1OC on UniProt O60674 was 13.3 µM

Recorded IC50 for CN(c1ccccc1)S(=O)(=O)c1cccc(C(=O)NCCc2ccc(O)c(O)c2)c1 on UniProt O60674 was 2.97 µM

Recorded IC50 for O=C(CCl)NC(=O)NC12CC3CC(CC(C3)C1)C2 on UniProt O60674 was 7.9 µM

The measurements presented in this section are drawn from PubChem BioAssay AID2165.
